- Tested on: SK-MEL-2 melanoma
- ASSAY PROTOCOL: NCI tumour cell line growth inhibition, 48 h
Please provide measured TGI for the entries that follow.

Task: Give the value of TGI reported for the following: `CCN1CC2(C)CC[C@@H](OC)C34[C@@H]2[C@H](OC(C)=O)C2(OCO[C@@]25C[C@H](OC)C2C[C@]3(O)[C@@H]5[C@H]2O)[C@H]14`
Output: > 100 µM

Task: State its TGI for this compound: `COC(=O)CNC(=O)/C=C/[C@H](O[Si](C)(C)C(C)(C)C)[C@H](/C=C/C(=O)NCC(=O)OC)O[Si](C)(C)C(C)(C)C`
Output: > 25 µM

Task: Supply measured TGI of `COc1ccc(NC(=O)C2=C(SC)C(=O)N=C2N)cc1` in your reply.
Output: > 100 µM

Task: Return TGI for the following compound: `O=C(O)CNC(=O)c1cccc2c(=O)c3ccccc3[nH]c12`
Output: > 100 µM

Task: Look up TGI of CC(=O)OCC1OC(n2c3c(c(-c4ccco4)c(C#N)c2=S)CCCC3)C(OC(C)=O)C(OC(C)=O)C1OC(C)=O (stereo unspecified) and report it.
Output: > 31.6 µM

Task: State its TGI: `O=C(O)c1ccccc1-c1ccccc1C(=O)c1ccccc1`
Output: > 100 µM

Task: Give a short answer stating reported TGI for O=C(CCN1CCCCC1CO)Nc1ccc2c(c1)C(=O)c1ccc(NC(=O)CCN3CCCCC3CO)cc1C2=O (stereo unspecified) .
Output: 18.8 µM

Task: Please supply the value of reported TGI for the item `COc1ccc([C@@]23CCC(=O)C[C@@H]2N(C)CC3)cc1OC`
Output: > 100 µM

Task: Tell me TGI reported for O=[N+]([O-])O.[NH-]C1CCCCC1[NH-].[NH-]C1CCCCC1[NH-].[NH-]C1CCCCC1[NH-].[OH-].[OH-].[OH-].[Pt+4].[Pt+4].[Pt+4] (stereo unspecified)
Output: 30.5 µM

Task: Fill in TGI for record CC(C)=C1CCC(CN2CCCC2)C1=O (stereo unspecified)
Output: 77.2 µM

Task: Hello, please tell me recorded TGI for this one: `Cc1[nH]c(=O)nc(N/N=C/c2ccc(O)cc2)c1C(=O)Nc1ccc(Cl)cc1`
Output: > 100 µM

Task: Read off the recorded TGI for O=C(CC(C(=O)O)N1CCOCC1)c1ccccc1 (stereo unspecified)
Output: 34.9 µM

Task: Give a short answer stating reported TGI for COc1ccccc1NC(=O)C(=O)C1C(=O)Nc2ccccc2S1=O (stereo unspecified) .
Output: > 100 µM

Task: Answer with the recorded TGI of `O=C1c2cccc3cccc(c23)C(=O)N1CCCN1CCN(CCCN2C(=O)c3cccc4cccc(c34)C2=O)CC1` only.
Output: > 100 µM

Task: Give the reported value of TGI for this record: `Fc1nc(F)nc(-c2c3ccccc3c3n2CCS3)n1`
Output: > 100 µM

Task: Look up and report measured TGI for this entry: COC(=O)C1=C(O)C(C(=O)OC)[C@@]2(O)[C@@H](C(=O)OC)C(c3ccc(OC(=O)C(CC(C)C)NC(C)=O)cc3)C[C@@H]1[C@@H]2C(=O)OC (stereo partly specified)
Output: > 100 µM

###

- Tested on: HOP-62 NSCLC
- ASSAY PROTOCOL: NCI tumour cell line growth inhibition, 48 h
OBSERVABLE: TGI

Task: Return TGI for the following molecule: O=C1CC2Sc3ccccc3N=C2N1c1ccc(Cl)cc1Cl (stereo not given)
Output: > 100 µM

Task: Return TGI (reported value) for this molecule: `N#Cc1nnc2c3c(-c4ccc(Cl)cc4)c(C#N)c(=O)[nH]c3nn2c1N`
Output: 21.8 µM

Task: Look up TGI of `CN1CCN(C(=S)SCN2C(=O)c3ccccc3S2(=O)=O)CC1` and report it.
Output: > 100 µM

Task: Identify the reported TGI for the following entry. O=[N+]([O-])O.[NH-]C1CCCCC1[NH-].[NH-]C1CCCCC1[NH-].[NH-]C1CCCCC1[NH-].[OH-].[OH-].[OH-].[Pt+4].[Pt+4].[Pt+4] (stereo not given)
Output: > 57.8 µM

Task: Please give measured TGI of the following entry: `CCOc1ccc(NC(=S)/N=C/C(C(=O)Nc2ccccc2C)=C(\C)O)cc1`
Output: > 100 µM

Task: Report TGI for `Cc1cnc2[nH]c(-c3ccccc3)cc(=O)c2c1`
Output: > 100 µM

Task: # return recorded TGI for input `COc1ccc(S(=O)(=O)Nc2ccc(-c3csc(N4C(=O)/C(=C/C=C\c5ccccc5)N=C4c4ccccc4)n3)cc2)cc1Cl`
Output: > 100 µM

Task: Return value of TGI for input `C#Cc1cccc(Nc2ncnc3ccc(-c4cncc(NS(C)(=O)=O)c4)cc23)c1` , no commentary.
Output: 14.1 µM

Task: // Input: COC1(OC)N=C(N)C2(C#N)/C(=N/N(C)C)CC(C)C12C#N (stereo not given) . Output its TGI only.
Output: > 100 µM

Task: Note down TGI recorded for COc1cc(C2c3cc4c(cc3[C@@H](Nc3cccc(O)c3)C3COC(=O)[C@H]23)OCO4)cc(OC)c1O (stereo not given in full)
Output: 4.24 µM

Task: Specify TGI for `CC(=O)Nc1ccc(C(=O)N2N=C(C)/C(=C/c3cccc(O)c3)C2=O)cc1` and stop.
Output: > 100 µM

Task: Answer with the recorded TGI of `CCN(CC)c1ccc(C(=C2C=CC(=[N+](CC)CC)C=C2)c2ccccc2)cc1` only.
Output: 0.491 µM

Task: Recall and state the measured TGI for `COc1ccc([C@@]23CCC(=O)C[C@@H]2N(C)CC3)cc1OC` .
Output: > 100 µM

Task: Please indicate TGI recorded for CSc1nc(Br)nc2c1ncn2C1CC(Oc2ccc(C)cc2)C(COc2ccc(C)cc2)O1 (stereo not given)
Output: > 100 µM

Task: Indicate its recorded TGI; the molecule in question is Cc1cccc(CC(C)(C)C)c1NC(=O)C(=O)C(C(=O)c1ccc2ccccc2c1)C1OC(=O)c2ccccc21 (stereo not given)
Output: 43.2 µM

Task: Supply recorded TGI for `COc1ccc(C[C@H]2COC(=O)[C@@H]2Cc2cc(OC)c(OC)c(OC)c2)cc1OC` here.
Output: > 100 µM

Task: Look up and state reported TGI for `N#CC(=C=[N-])[n+]1ccc(Cl)cc1`
Output: 83 µM

Task: Return reported TGI. Input molecule: `O=C(CN=Cc1cccs1)CSC(c1ccccc1)c1ccccc1`
Output: > 100 µM

Task: Could you please provide reported TGI for `O=C1c2ccccc2C(=O)c2c1ccc1c3ccccc3n(Cc3ccccc3)c21` ? Thanks!
Output: > 100 µM

Task: // Input: `O=C(Nc1ccccc1)Nc1ccccc1CNc1nc(Nc2ccc(OCCN3CCCC3)cc2)ncc1Cl` . Output its TGI only.
Output: 21.8 µM

###

- System: HCC-2998 colon
- ASSAY PROTOCOL: NCI tumour cell line growth inhibition, 48 h
Would you mind telling me the reported TGI of each entry?

Task: Hello, please tell me recorded TGI for this one: CCC1(O)CN(CCOC)[C@H]2C[C@@H]1C(=O)c1[nH]c3ccccc3c12 (some centres undefined)
Output: > 100 µM

Task: Item `N#Cc1ccc(N2Cc3cc(Cl)ccc3OC3=C2C(=O)N(Cc2ccccc2)C3=O)cc1` : provide TGI
Output: 3.65 µM

Task: Give the measured TGI for COc1ccc(-n2nc(C)c3c2N(C)C2(C)C[C@@H]4C3(C)[C@@H]3CC4(C2)N(C)c2c(c(C)nn2-c2ccc(OC)cc2)[C@H]3C)cc1 (some centres undefined)
Output: > 100 µM

Task: Return TGI (reported value) for this compound: CN(Cc1nc2c(N)nc(N)nc2nc1N)c1ccc(C(=O)NC(CCC(=O)O)C(=O)O)cc1 (centres undefined)
Output: > 100 µM

###

- System: MOLT-4 leukemia
- ASSAY PROTOCOL: NCI tumour cell line growth inhibition, 48 h; in the data active = GI50 below about 0.43 µM; inactive = the rest
Where a SMILES comes first, the peptide text is derived from it. The star is where a group is joined. Palmitoyl = CCCCCCCCCCCCCCCC(=O)*
Response enum: label 1 (active), label 0 (inactive)

Task: Assay outcome for O=[N+]([O-])O.[NH-]C1CCCCC1[NH-].[NH-]C1CCCCC1[NH-].[NH-]C1CCCCC1[NH-].[OH-].[OH-].[OH-].[Pt+4].[Pt+4].[Pt+4] (stereo not given) : what was it?
Output: label 1

Task: Assay result, entry `COc1ccc(N=C2NN=C(c3c[nH]c4ccccc34)CS2)cc1OC` — outcome?
Output: label 0

Task: For `O=C(CN=Cc1cccs1)CSC(c1ccccc1)c1ccccc1` , what call appears in the results of this test?
Output: label 0

Task: # outcome recorded in this test, key = CCCCCCCCCCCCCCCC(=O)NC(CCCCN)C(=O)NCC(=O)NC(Cc1ccccc1)C(=O)N1CCCC1C(=O)NC(CO)C(=O)NC(Cc1ccc(O)cc1)C(=O)NC(CCCCN)C(=O)NC(CC(C)C)C(=O)NC(CCCN=C(N)N)C(=O)N1CCCC1C(=O)NCC(N)=O (stereo not given) (Palmitoyl-KGFPSYKLRPG-NH2; configuration not given here)
Output: label 0

Task: Dear all, I need the recorded test outcome for `Cn1c(COC(=O)NCCN2CCOCC2)nc2c(N3CCOCC3)nc(-c3ccccc3)nc21` , thank you.
Output: label 0

Task: What is the recorded call for this compound in the test? COc1ccc(N(Cc2cc(OC)c(OC)c(OC)c2)C2OC(=O)c3ccccc32)cc1 (stereo not given)
Output: label 0

Task: What classification did `CCNC(=O)Oc1ccc(/C(=C(\C)c2ccc(Cl)cc2)c2ccc(OCCN3CCCCC3)cc2)cc1` end up with in this test?
Output: label 0

Task: Could you kindly confirm the outcome this assay logged for `CN1C/C(=C\c2ccccc2[N+](=O)[O-])C(=O)/C(=C/c2ccccc2[N+](=O)[O-])C1` ?
Output: label 1

Task: Hey, what did the test say about `CCSc1nc(N)c2cnn(C)c2n1` ?
Output: label 0

Task: Just curious, what result did CCOC(=O)C1=C(c2ccccc2)N(Cc2ccccc2)C2(O)C=CC(=O)C3C(=O)N(c4ccccc4)C(=O)C132 (stereo not given) get here?
Output: label 0

Task: Field: outcome | Entry: `Cc1ccc(OCCCCCCNCCO)c(C)c1`
Output: label 0

Task: Please indicate how the test categorized CCCCCCCCCCCCNC(=O)[C@H]1CSC(c2ccc(OC)c(F)c2)N1 (stereo not given in full) .
Output: label 1

Task: Please indicate how the test categorized `O=c1c2cc(F)ccc2sc2c(NCCCN3CCCC3)nc3ccccc3c12` .
Output: label 0

Task: Which outcome was entered for the compound `CCOc1cccnc1/C=N/NC(N)=S` in this test?
Output: label 0

Task: What was the test verdict on `CC(=O)N[C@@H]1CCC[C@H](C(=O)Nc2cc(-c3cnn4c3CC(C)(C)C4)c(Cl)cn2)C1` ?
Output: label 1

Task: Short answer needed: outcome of this test for `Nc1ccc2c(c1)CN1C(=O)c3ccccc3C1=N2` ?
Output: label 0

Task: Look up the recorded call for COC(=O)C1=C(O)C(C(=O)OC)[C@@]2(O)[C@@H](C(=O)OC)C(c3ccc(OC(=O)C(CC(C)C)NC(C)=O)cc3)C[C@@H]1[C@@H]2C(=O)OC (stereo not given in full) in this test.
Output: label 0

Task: Could you check what this test reported for `CC(C)n1nc(C#Cc2cccc(NC(=O)c3cccc(C(F)(F)F)c3)c2)c2c(N)ncnc21` ?
Output: label 0

Task: Returns: the outcome recorded for O=C(NO)C(O)C(O)C(O)C(O)CO (stereo not given) in this assay.
Output: label 0

Task: Could you please tell me the result logged for CCCCCCN(CCCCCC)CC(O)c1cccc2ccc(Cl)cc12 (stereo not given) in this assay?
Output: label 0

Where do the numbers come from? From PubChem BioAssay (NCI).
